# target: IDH1-R132H recombinant protein (Homo sapiens (Human), UniProt O75874, R132H)
# Sequence (O75874 whole entry R132H): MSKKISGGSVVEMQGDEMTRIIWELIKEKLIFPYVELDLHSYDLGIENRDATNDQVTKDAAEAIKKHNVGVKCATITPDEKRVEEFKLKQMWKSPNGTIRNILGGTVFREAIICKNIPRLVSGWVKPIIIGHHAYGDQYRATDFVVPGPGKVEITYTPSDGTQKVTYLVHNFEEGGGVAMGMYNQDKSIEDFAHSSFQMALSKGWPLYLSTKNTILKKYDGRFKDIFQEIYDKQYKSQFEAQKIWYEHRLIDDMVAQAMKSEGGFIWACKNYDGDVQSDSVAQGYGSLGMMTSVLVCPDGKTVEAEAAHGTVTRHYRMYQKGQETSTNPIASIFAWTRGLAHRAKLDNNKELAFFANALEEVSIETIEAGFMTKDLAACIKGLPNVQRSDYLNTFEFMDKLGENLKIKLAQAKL
# assayInfo: IDH1-R132H enzymatic assay (NADPH consumption, diaphorase/resazurin readout)
# testContext: inhibition of NADPH consumption, 30 nM IDH1-R132H; read-out: Enzyme IDH1 R132H IC50
IC50 reference

Below, each entry is followed by its recorded IC50 result.
* O=c1[nH]c2ccc(Cl)cc2cc1CNc1ccc2ncccc2c1 | > 10 µM
* Cc1cc2cc(CNc3ccc4ncsc4c3)c(=O)[nH]c2cc1C | > 10 µM

// query Answer with the recorded IC50 for the compound listed here: `COc1cc2[nH]c(=O)c([C@H](C)Nc3ncc4c(n3)N(C)C(=O)OC4)cc2cc1Cl`
// result < 0.1 µM

// query Using known records, supply IC50 for `O=c1[nH]c2ccc(Cl)cc2cc1CNc1ccc2c(c1)OCCO2`
// result > 10 µM

// query Give recorded IC50. `O=C1Cc2ccc(NCc3cc4cc(Cl)ccc4[nH]c3=O)cc2N1`
// result > 10 µM

// query Answer with reported IC50 of `CC(=O)N1CCc2c1ccnc2N[C@@H](C)c1cc2cc(Cl)ccc2[nH]c1=O`
// result 0.1 to 1 µM

// query Please supply the value of reported IC50 for the item `O=C1COc2cc(NCc3cc4cc(Cl)ccc4[nH]c3=O)ccc2N1`
// result 1 to 10 µM

// query Identify measured IC50 associated with `O=c1[nH]c2ccc(Cl)cc2cc1CNc1ccc2ncsc2c1`
// result > 10 µM

// query Give a short answer stating reported IC50 for `C[C@H](Nc1ncc2[nH]c(=O)[nH]c2n1)c1cc2cc(Cl)ccc2[nH]c1=O` .
// result 1 to 10 µM

// query Indicate its recorded IC50; the compound in question is `COc1cc2c(cc1NCc1cc3cc(Cl)ccc3[nH]c1=O)NC(=O)CC2`
// result > 10 µM

// query State, in one line, measured IC50 of `COc1ccc2[nH]c(=O)c(CNc3ccc4cn[nH]c4c3)cc2c1`
// result > 10 µM

// query Answer with the recorded IC50 for the compound listed here: `CC(C)Cn1c(=O)oc2cnc(N[C@@H](C)c3cc4cc(Cl)ccc4[nH]c3=O)nc21`
// result < 0.1 µM

// query Give IC50 for `O=C1CCc2cc(NCc3cc4cc(Cl)ccc4[nH]c3=O)ccc2N1`
// result 1 to 10 µM

// query Look up and state reported IC50 for `C[C@H](Nc1nccc2c1CCN2S(C)(=O)=O)c1cc2cc(Cl)ccc2[nH]c1=O`
// result 1 to 10 µM

// query Given the compound `COc1ccc2[nH]c(=O)c(CNc3ccc4ncsc4c3)cc2c1` , write its reported IC50.
// result > 10 µM

// query Look up and report measured IC50 for this entry: `COc1cc2[nH]c(=O)c([C@@H](C)Nc3ncc4c(n3)N(C)C(=O)OC4)cc2cc1Cl`
// result 0.1 to 1 µM

// query Dear colleague, please send me the reported IC50 for `C[C@H](Nc1ncc2[nH]c(=O)n(C)c2n1)c1cc2cc(Cl)ccc2[nH]c1=O` when you can.
// result 0.1 to 1 µM

====

# target: IDH1-R132H recombinant protein (Homo sapiens (Human), UniProt O75874, R132H)
# assayInfo: IDH1-R132H enzymatic assay (NADPH consumption, diaphorase/resazurin readout)
# testContext: inhibition of NADPH consumption, 30 nM IDH1-R132H; read-out: Enzyme IDH1 R132H IC50
Property: IC50; scope: individual compounds

Examples with answers:
* CN1C(=O)CCc2cc(NCc3cc4cc(Cl)ccc4[nH]c3=O)ccc21 | 0.1 to 1 µM
* O=c1[nH]c2ccc(Cl)cc2cc1CNc1ccc2cn[nH]c2c1 | > 10 µM
* COc1ccc2[nH]c(=O)c(CNc3ccc4c(c3)OCCO4)cc2c1 | > 10 µM
* O=C1CCCc2c(NCc3cc4cc(Cl)ccc4[nH]c3=O)cccc21 | > 10 µM

Now, please, on to the next compound.
// query Report IC50 for `COc1ccc2[nH]c(=O)c(CNc3ccc4ncccc4c3)cc2c1`
// result > 10 µM

These data points were gathered from patent US9624175B2.
